- assayed_target: T1, recombinant human IL-31 (hIL-31, BHK produced, A1277F, zcytor17lig CEE) (human, UniProt Q6EBC2 24-164)
- T1 construct: also called recombinant hIL-31
- T1 sequence: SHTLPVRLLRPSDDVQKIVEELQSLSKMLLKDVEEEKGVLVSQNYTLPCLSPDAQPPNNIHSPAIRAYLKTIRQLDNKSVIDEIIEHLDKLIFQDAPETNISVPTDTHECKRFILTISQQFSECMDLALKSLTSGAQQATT
- measurement_description: SPR (Biacore), mAb amine-coupled to CM5 chip, hIL-31 injected
reported_endpoint: kon (M⁻¹ s⁻¹)
Express it in M⁻¹ s⁻¹; write the number only.

[
  {
    "binder": "humanized 292.12.3.1 construct clone 32 (12VH1-gly + HC(F29L, R71A, V78A, R94F) + LC(F71Y)) (antibody, human IgG4, V domains shown) VH: QVQLVQSGAEVKKPGASVKVSCKASGYTLTRYWMQWVRQAPGQGLEWMGAIYPGDGDTRYSQKFQGRVTMTADTSISTAYMELSSLRSEDTAVYYCAFPDGYYAAPYGMDYWGQGTLVTVSS VL: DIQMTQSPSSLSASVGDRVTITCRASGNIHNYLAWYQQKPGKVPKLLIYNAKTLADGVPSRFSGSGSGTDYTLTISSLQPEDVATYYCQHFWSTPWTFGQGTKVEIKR",
    "unit_string": "M⁻¹ s⁻¹",
    "kon": 93000
  },
  {
    "binder": "humanized 292.12.3.1 construct clone 29 (12VH1-gly + HC(F29L, T73K, R94F) + LC(F71Y)) (antibody, human IgG4, V domains shown) VH: QVQLVQSGAEVKKPGASVKVSCKASGYTLTRYWMQWVRQAPGQGLEWMGAIYPGDGDTRYSQKFQGRVTMTRDKSISTVYMELSSLRSEDTAVYYCAFPDGYYAAPYGMDYWGQGTLVTVSS VL: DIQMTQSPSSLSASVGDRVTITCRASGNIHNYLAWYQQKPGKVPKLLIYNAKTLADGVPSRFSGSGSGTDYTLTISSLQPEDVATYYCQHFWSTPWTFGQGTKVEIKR",
    "unit_string": "M⁻¹ s⁻¹",
    "kon": 90000
  },
  {
    "binder": "humanized 292.12.3.1 construct clone 21 (12VH5-gly + HC(G24A, S28T, F29L, R94F) + LC(fback)) (antibody, human IgG4, V domains shown) VH: EVQLVQSGAEVKKPGESLKISCKASGYTLTRYWMQWVRQMPGKGLEWMGAIYPGDGDTRYSPSFQGQVTISADKSISTAYLQWSSLKASDTAMYYCAFPDGYYAAPYGMDYWGQGTTVTVSS VL: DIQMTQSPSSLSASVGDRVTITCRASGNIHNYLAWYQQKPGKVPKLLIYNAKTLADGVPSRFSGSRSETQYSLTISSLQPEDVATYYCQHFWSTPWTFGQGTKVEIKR",
    "unit_string": "M⁻¹ s⁻¹",
    "kon": 69000
  }
]

As a next step, examine the binder that follows.
Ask | Bench note: what kon did humanized 292.12.3.1 construct clone 10 (12VH1-gly + LC(fback)) (antibody, human IgG4, V domains shown) VH: QVQLVQSGAEVKKPGASVKVSCKASGYTFTRYWMQWVRQAPGQGLEWMGAIYPGDGDTRYSQKFQGRVTMTRDTSISTVYMELSSLRSEDTAVYYCARPDGYYAAPYGMDYWGQGTLVTVSS VL: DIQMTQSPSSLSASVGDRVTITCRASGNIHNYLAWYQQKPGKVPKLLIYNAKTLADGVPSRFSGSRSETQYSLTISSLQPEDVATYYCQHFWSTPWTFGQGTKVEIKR show?
Reply | 88000
